target: PI3K (Homo sapiens); construct: PI3 Kinase α IC50; other: PI3 Kinase α; other: PI3 Kinase α isoform, fluorescence polarization; experiment: Fluorescence polarization assay for PI3K; assay type: biochemical; conditions: PI3 Kinase α isoform, fluorescence polarization; read-out: PI3 Kinase α IC50
Endpoint name: pIC50
Quick note: pIC50 values are minus log10 of concentrations in mol/L.

Molecule: CN1CCN(C2CCC(n3ncc4c(N5CC6CCC(C5)O6)nc(-c5ccc(NC(=O)Nc6ccccc6)cc5)nc43)CC2)CC1 (stereo not shown)
pIC50: 6.66
//
Molecule: C=Cc1nn(CC)c2nc(-c3ccc(NC(=O)NC)cc3)nc(N3CC4CCC(C3)O4)c12
pIC50: 6.25
//
Molecule: O=C(Nc1ccc(-c2nc(N3CC4CCC(C3)O4)c3sccc3n2)cc1)Nc1cccnc1
pIC50: 6.92
//
Molecule: CN1CCN(Cc2cc3nc(-c4ccc(NC(=O)Nc5cccnc5)cc4)nc(N4CC5CCC(C4)O5)c3s2)CC1
pIC50: 6.83

Query CN1CCN(Cc2cc3nc(-c4ccc(NC(=O)NN(C)C)cc4)nc(N4CC5CCC(C4)O5)c3s2)CC1 yields pIC50 of 5.26

Reported pIC50 of COC(=O)N1CCC(n2ncc3c(N4C5CCC4COC5)nc(-c4ccc(NC(=O)Nc5ccc(CN6CCN(C)CC6)cc5)cc4)nc32)CC1 : 5.62

// sample CCn1nc(Br)c2c(N3CC4CCC(C3)O4)nc(-c3ccc(NC(=O)NC)cc3)nc21 , its pIC50 was 6.50

Reported pIC50 of CS(=O)(=O)N1CCN(Cc2cc3nc(-c4ccc(NC(=O)Nc5ccccc5)cc4)nc(N4CC5CCC(C4)O5)c3s2)CC1 : 8.22

Value of pIC50 reported for the molecule CN1CCN(C2CCC(n3ncc4c(N5CC6CCC(C5)O6)nc(-c5ccc(NC(=O)OCCO)cc5)nc43)CC2)CC1 (stereo not shown) is 5.50

Entry Oc1ccc(-c2nc(N3CC4CCC(C3)O4)c3sccc3n2)cc1 , pIC50 reported as 5.20

pIC50 measured on CCNC(=O)Nc1ccc(-c2nc(N3CC4CCC(C3)O4)c3cnn(C(COC)COC)c3n2)cc1 = 5.71

Entry under test: O=C(Nc1ccc(-c2nc(N3CC4CCC(C3)O4)c3cnn([C@H]4CC[C@@H](O)CC4)c3n2)cc1)NC1CC1 (relative stereo) . Its pIC50 was 5.53

For record CN1CCN(c2ccc(NC(=O)Nc3ccc(-c4nc(N5CC6CCC(C5)O6)c5cnn([C@H]6CC[C@H](O)CC6)c5n4)cc3)cc2)CC1 (relative stereo) the listed pIC50 is 7.03

For CNC(=O)Nc1ccc(-c2nc(N3CC4CCC(C3)O4)c3cnn([C@H]4CC[C@@H](O)CC4)c3n2)cc1 (relative stereo) the molecule record lists pIC50 as 6.64

get_value(item= COC(=O)N1CCC(n2ncc3c(N4C5CCC4COC5)nc(-c4ccc(NC(=O)Nc5cccnc5)cc4)nc32)CC1 , readout=pIC50) returns 5.74

Recorded result, CNC(=O)Nc1ccc(-c2nc(N3CC4CCC(C3)O4)c3cnn([C@H]4CC[C@H](O)CC4)c3n2)cc1 (relative stereo) , pIC50: 6.05

Lookup result for CCNC(=O)Nc1ccc(-c2nc(N3CC4CCC(C3)O4)c3cnn(C4CCC(N5CCN(C)CC5)CC4)c3n2)cc1 (stereo not shown) ; measured pIC50: 5.67

Reported pIC50 for CCn1ncc2c(N3CC4CCC(C3)O4)nc(-c3ccc(NC(=O)OC)cc3)nc21 was 5.32

get_value(item= COC1CCC(n2ncc3c(N4CC5CCC(C4)O5)nc(-c4ccc(NC(=O)Nc5ccc(CO)cc5)cc4)nc32)CC1 (stereo not shown) , readout=pIC50) returns 7.10

Documented pIC50 of O=C(Nc1ccc(-c2nc(N3CC4CCC(C3)O4)c3cnn(C4CCC5(CCCO5)CC4)c3n2)cc1)NC1CC1 (single isomer, unassigned) : 5.34

###

target: Human mTOR (FLAG-TOR) (Homo sapiens, UniProt P42345); construct: FLAG; experiment: Human mTOR kinase assay with purified enzyme, DELFIA format; type: biochemical
pIC50: −log10 of the molar value.
# cutoff 9 applies to pIC50; >= gives Criterion met, < gives Criterion not met

Quick check, pIC50 >= 9? CCOC(=O)N1CCC(n2ncc3c(N4CC5CCC(C4)O5)nc(-c4ccc(NC(=O)Nc5cccnc5)cc4)nc32)CC1 Criterion met

// inclusive: pIC50 at least 9? input: CCn1ncc2c(N3CC4CCC(C3)O4)nc(-c3ccc(NC(=O)N[C@H]4CC[C@H](N)CC4)cc3)nc21 (relative stereo) Criterion not met

Please check the record CCNC(=O)Nc1ccc(-c2nc(N3CC4CCC(C3)O4)c3cnn(CC(F)(F)F)c3n2)cc1 and state if its pIC50 is at or above 9. Criterion met

Is it the case that CCn1ncc2c(N3CC4CCC(C3)O4)nc(-c3ccc(NC(=O)Nc4ccc(N5CCCC5)cc4)cc3)nc21 has pIC50 reaching or exceeding 9? Criterion not met

For this molecule, is measured pIC50 9 or higher? CCn1ncc2c(N3CC4CCC(C3)O4)nc(-c3ccc(NC(=O)NC4CCN(C)CC4)cc3)nc21 Criterion not met

For this molecule, is measured pIC50 9 or higher? CCn1ncc2c(N3CC4CCC(C3)O4)nc(-c3ccc(NC(=O)Nc4cccnc4)cc3)nc21 Criterion met

Hi team, for CNC(=O)Nc1ccc(-c2nc(N3CC4CCC(C3)O4)c3cnn(C4CCC5(CC4)OCCO5)c3n2)cc1 [Example 62] , is the recorded pIC50 at or above 9? Criterion met

// inclusive: pIC50 at least 9? input: COC(=O)N1CCC(n2ncc3c(N4CC5CCC(C4)O5)nc(-c4ccc(NC(=O)Nc5ccccc5)cc4)nc32)CC1 Criterion met

###

target: Human mTOR (FLAG-TOR) (Homo sapiens); construct: FLAG; assay: Human mTOR kinase assay with purified enzyme, DELFIA format; assay type: biochemical; settings: purified human mTOR enzyme, DELFIA format
Returns: string. Value is criterion met if measured IC50 is below 9 nM, and criterion not met if it is greater than or equal to it.

Compound: COC(=O)N1CCC(n2ncc3c(N4C5CCC4COC5)nc(-c4ccc(NC(=O)Nc5cccnc5)cc4)nc32)CC1
Classification: criterion met
//
Compound: CS(=O)(=O)N1CCN(Cc2cc3nc(-c4ccc(NC(=O)NC5CC5)cc4)nc(N4CC5CCC(C4)O5)c3s2)CC1
Classification: criterion met
//
Compound: CNC(=O)Nc1ccc(-c2nc(N3C4COCC3C(O)C4)c3cnn(CC(F)(F)F)c3n2)cc1 (centres unmarked)
Classification: criterion not met

Determine whether this compound shows IC50 lower than 9 nM (ties excluded): COC1CCC(n2ncc3c(N4CC5CCC(C4)O5)nc(-c4ccc(NC(=O)Nc5ccc(N6CCN(C)CC6)nc5)cc4)nc32)CC1 (centres unmarked) criterion met

Just wondering, is IC50 of O=C(Nc1ccc(-c2nc(N3C[C@H]4C[C@@H]3CO4)c3cnn(CC(F)(F)F)c3n2)cc1)NC1CC1 below 9 nM? criterion not met

Does this compound meet the criterion IC50 < 9 nM? COCC(COC)n1ncc2c(N3CC4CCC(C3)O4)nc(-c3ccc(NC(=O)OCCO)cc3)nc21 criterion not met

Decide: IC50 of Nc1ccc(-c2nc(N3CC4CCC(C3)O4)c3cnn(CC(F)(F)F)c3n2)cc1 strictly below 9 nM? criterion not met

###

biological target: PI3K (Homo sapiens, UniProt P42336); construct: PI3 Kinase α IC50; other: PI3 Kinase α; other: PI3 Kinase α isoform, fluorescence polarization; experiment: Fluorescence polarization assay for PI3K; type: biochemical; conditions: PI3 Kinase α; read-out: PI3 Kinase α IC50
Sequence (P42336 whole entry, canonical isoform): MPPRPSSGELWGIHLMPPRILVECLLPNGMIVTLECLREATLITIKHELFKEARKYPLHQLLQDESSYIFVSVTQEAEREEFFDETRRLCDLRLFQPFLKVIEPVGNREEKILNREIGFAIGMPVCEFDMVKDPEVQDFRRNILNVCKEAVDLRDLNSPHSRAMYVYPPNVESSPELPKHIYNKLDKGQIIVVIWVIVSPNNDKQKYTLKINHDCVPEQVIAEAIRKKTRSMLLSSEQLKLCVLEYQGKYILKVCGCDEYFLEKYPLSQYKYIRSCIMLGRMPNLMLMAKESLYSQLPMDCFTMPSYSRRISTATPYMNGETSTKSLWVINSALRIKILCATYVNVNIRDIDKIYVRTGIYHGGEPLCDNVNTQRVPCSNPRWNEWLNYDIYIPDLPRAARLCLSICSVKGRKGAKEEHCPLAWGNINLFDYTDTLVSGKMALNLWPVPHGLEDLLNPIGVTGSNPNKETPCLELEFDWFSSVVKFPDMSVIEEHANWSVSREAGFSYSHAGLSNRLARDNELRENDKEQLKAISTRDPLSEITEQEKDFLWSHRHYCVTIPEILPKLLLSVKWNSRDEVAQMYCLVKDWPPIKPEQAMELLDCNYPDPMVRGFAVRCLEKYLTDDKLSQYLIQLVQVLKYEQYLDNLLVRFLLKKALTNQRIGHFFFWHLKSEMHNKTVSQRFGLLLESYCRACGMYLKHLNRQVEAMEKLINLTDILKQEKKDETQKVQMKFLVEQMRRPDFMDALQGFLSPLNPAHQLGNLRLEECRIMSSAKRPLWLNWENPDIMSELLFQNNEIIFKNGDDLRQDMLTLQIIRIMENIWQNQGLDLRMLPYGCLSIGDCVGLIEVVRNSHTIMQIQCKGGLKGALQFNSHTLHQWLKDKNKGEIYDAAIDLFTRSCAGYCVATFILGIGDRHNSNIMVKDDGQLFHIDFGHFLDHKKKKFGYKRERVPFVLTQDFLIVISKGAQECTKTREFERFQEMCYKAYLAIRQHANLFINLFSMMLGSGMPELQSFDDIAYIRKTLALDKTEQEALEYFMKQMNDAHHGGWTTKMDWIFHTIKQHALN
In this section, each of the molecules is paired with its reported log10(IC50).
Heads up, the numbers here are log10 of IC50 in nM units.

Molecule: O=C(NCCF)Nc1ccc(-c2nc(N3CC4CCC(C3)O4)c3cnn(CC(F)(F)F)c3n2)cc1
log10(IC50): 3.44

Known value: PI3K (Homo sapiens, UniProt P42336) log10(IC50) of the molecule CNC(=O)Nc1ccc(-c2nc(N3CC4CCC(C3)O4)c3cnn(C4CCN(CC(F)(F)F)CC4)c3n2)cc1 equals 3.11

Let me check: CCn1ncc2c(N3CC4CCC(C3)O4)nc(-c3ccc(NC(=O)N[C@H]4CC[C@@H](N)CC4)cc3)nc21 (relative stereo) , system PI3K (Homo sapiens, UniProt P42336), measured log10(IC50) is 3.45

Measured log10(IC50) for this entry CC(C)n1ncc2c(N3CC4CCC(C3)O4)nc(-c3ccc(NC(=O)OCC(O)CO)cc3)nc21 (stereo not drawn) on PI3K (Homo sapiens, UniProt P42336): 3.33
